quantity: melting point (°C)

                                    compound       quantity  readout_value
 0                  OC1CCCC1 [cyclopentanol]  melting point            -19
 1  Cc1ccc(B(O)O)cc1Cl [3-chloro-4-methylbenzeneboronic acid]  melting point            227
 2  O=C(c1ccc(Cl)cc1)c1nn(-c2ccccc2)/c(=N\N=C\c2ccc(F)cc2)s1  melting point            151
 3  Clc1cc(Cl)c(I)cc1Cl [1,2,4-trichloro-5-iodobenzene]  melting point            104
 4                       CC=O [Acetaldehyde]  melting point           -124
 5  O=[N+]([O-])c1cccc(Cl)c1 [1-chloro-3-nitrobenzene]  melting point             45
 6  COC(=O)c1cc(F)ccc1N [methyl 2-amino-5-fluorobenzoate]  melting point             23
 7          CC(=O)Nc1ccc(O)cc1 [paracetamol]  melting point            169
 8  O=C(N[C@H](CO)[C@H](O)c1ccc([N+](=O)[O-])cc1)C(Cl)Cl [chloramphenicol]  melting point            151
 9  CN(C)c1ccc(C=O)cc1 [p-dimethylaminobenzaldehyde]  melting point             75
10  COC(=O)c1cc2c(OC)cccc2[nH]1 [methyl 4-methoxyindole-2-carboxylate]  melting point            141
11  O=C1NC(=O)c2c1cccc2[N+](=O)[O-] [3-nitrophthalimide]  melting point            219
12  CCc1cc(Br)ccc1NC(C)=O [4'-bromo-2'-ethylacetanilide]  melting point            143
13  NC1=C(c2ccccc2)C(=O)c2ccccc21 [3-amino-2-phenylindenone]  melting point            271
14         O=C1C=CCCC1 [2-cyclohexene-1-one]  melting point            -53
15  Cc1ccc([N+](=O)[O-])c(O)c1 [5-methyl-2-nitrophenol]  melting point             55
16  O=C1CN=C(c2ccccc2F)c2cc(Cl)ccc2N1CC1CC1 [flutoprazepam]  melting point            118
17  Cc1cccc([N+](=O)[O-])c1C [3-nitro-1,2-dimethylbenzene]  melting point              9
18          C#CCCCCCCCCCCCCCC [1-hexadecyne]  melting point             15
19  CC(COc1ccccc1)NC(C)C(O)c1ccc(O)cc1 (stereo unspecified) [Isolait]  melting point            103
20  O=C(Cl)c1ccccc1F [2-fluorobenzoyl chloride]  melting point              5
